Values from patent US10106535B2

# target.or.system: human catalytic domain HDAC4 protein (amino acids 648-1032) (Homo sapiens (Human))
# Sequence (P56524 648-1032): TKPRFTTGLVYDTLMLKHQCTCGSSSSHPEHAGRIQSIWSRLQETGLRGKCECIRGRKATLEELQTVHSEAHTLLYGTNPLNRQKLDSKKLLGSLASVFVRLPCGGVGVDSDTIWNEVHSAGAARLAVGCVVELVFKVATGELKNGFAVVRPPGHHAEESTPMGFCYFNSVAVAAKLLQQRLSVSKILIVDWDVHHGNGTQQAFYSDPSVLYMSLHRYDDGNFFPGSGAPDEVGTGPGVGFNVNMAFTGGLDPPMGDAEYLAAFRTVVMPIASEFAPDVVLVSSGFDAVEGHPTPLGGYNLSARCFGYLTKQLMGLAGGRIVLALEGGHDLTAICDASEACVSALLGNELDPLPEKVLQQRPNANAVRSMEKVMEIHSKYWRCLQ
assay.readout: IC50 (nM)

• Cc1ncc(C2=C[C@](C(=O)NO)(c3cccc(F)c3C)CC2)cn1 = 40
